Assign CC50 to each entry below.
System: HT29 (Colon cancer)
Experimental details: NCI-60 screen (SRB, 48 h)
Experimental context: Homo sapiens, HT-29, read-out: LC50
Give bare numbers, in µM.

Consider the worked cases shown below.
// lookup CC50 for C[C@H]1[C@H](C)CC[C@]2(CO)CC[C@]3(C)C(=CC[C@@H]4[C@@]5(C)CCCNC(C)(C)[C@@H]5CC[C@]43C)[C@H]12
4.85

Can you look up the measured CC50 of C=C(C)[C@@H]1CC[C@]2(C)[C@H](CC=C3[C@@H]4[C@@H](C)[C@H](C)CC[C@]4(CO)CC[C@]32C)[C@@]1(C)CCCN for me?
4.22

Item C=C(C)[C@@H]1CC[C@]2(C)[C@H](C=CC3=C4C[C@@](C)(CO)CC[C@]4(C)CC[C@]32C)[C@@]1(C)CCCN has what recorded CC50?
6.59

Given CC1(C)NCCC[C@]2(C)[C@H]3C=CC4=C5C[C@@](C)(CO)CC[C@]5(C)CC[C@@]4(C)[C@]3(C)CC[C@@H]12 , state its recorded CC50.
41.8

Need CC50 of C=C(C)[C@@H]1CCC=C2CC[C@]3(C)[C@H](CC[C@@H]4[C@@]5(C)CCCNC(C)(C)[C@@H]5CC[C@]43C)[C@H]21 , thanks.
5.56

Entry CC1(C)CC[C@]23CC[C@]4(C)[C@H](CC[C@@H]5[C@@]6(C)CCCNC(C)(C)[C@@H]6CC[C@]54C)[C@H]2[C@H]1OC3 has what CC50?
7.42

Need CC50 of C=C(C)[C@@H]1CC[C@]2(C(=O)N[C@H](CO)Cc3ccccc3)CC[C@]3(C)[C@H](CC[C@@H]4[C@@]5(C)CCCNC(C)(C)[C@@H]5CC[C@]43C)[C@@H]12 , thanks.
1.75

From here, focus on the item given below.
Using the record for CC1(C)CC[C@]2(CO)CC[C@]3(C)C(=CC[C@@H]4[C@@]5(C)CCCNC(C)(C)[C@@H]5CC[C@]43C)[C@@H]2C1 , report its CC50.
8.23

Cited source: paper PMC7914897
